Procedure details: IV pharmacokinetics, Beagle dog
Format: in vivo
Experimental context: male, beagle, dog, plasma, iv, 1 mg/kg
Measure: clearance (mL/min/kg)

# Smiles code, Measure, Units text, Recorded measurement
records = [
    ("CN[C@@H](C)C(=O)N[C@H](C(=O)N1CCC[C@H]1C(=O)Nc1snnc1-c1ccccc1)C1CCCCC1", "clearance", "mL/min/kg", 16),
]

====

Procedure details: IV pharmacokinetics, Cynomolgus monkey
Type: in vivo
Experimental context: male, monkey, plasma, iv, 20 mg/kg

# Smiles code, clearance [mL/min/kg]
data = [
    ("CN[C@@H](C)C(=O)N[C@H](C(=O)N1CCC[C@H]1C(=O)Nc1snnc1-c1ccccc1)C1CCCCC1", 36),
]

====

Procedure details: IV pharmacokinetics, Beagle dog
Format: in vivo
Experimental context: both, beagle, dog, plasma, iv, 20 mg/kg

# Smiles code, clearance (mL/min/kg)
rows = [
    ("CN[C@@H](C)C(=O)N[C@H](C(=O)N1CCC[C@H]1C(=O)Nc1snnc1-c1ccccc1)C1CCCCC1", 19),
]
